Target: Phospholipase D2 (Homo sapiens) (UniProt O14939)
Sequence (O14939 whole entry, looked up): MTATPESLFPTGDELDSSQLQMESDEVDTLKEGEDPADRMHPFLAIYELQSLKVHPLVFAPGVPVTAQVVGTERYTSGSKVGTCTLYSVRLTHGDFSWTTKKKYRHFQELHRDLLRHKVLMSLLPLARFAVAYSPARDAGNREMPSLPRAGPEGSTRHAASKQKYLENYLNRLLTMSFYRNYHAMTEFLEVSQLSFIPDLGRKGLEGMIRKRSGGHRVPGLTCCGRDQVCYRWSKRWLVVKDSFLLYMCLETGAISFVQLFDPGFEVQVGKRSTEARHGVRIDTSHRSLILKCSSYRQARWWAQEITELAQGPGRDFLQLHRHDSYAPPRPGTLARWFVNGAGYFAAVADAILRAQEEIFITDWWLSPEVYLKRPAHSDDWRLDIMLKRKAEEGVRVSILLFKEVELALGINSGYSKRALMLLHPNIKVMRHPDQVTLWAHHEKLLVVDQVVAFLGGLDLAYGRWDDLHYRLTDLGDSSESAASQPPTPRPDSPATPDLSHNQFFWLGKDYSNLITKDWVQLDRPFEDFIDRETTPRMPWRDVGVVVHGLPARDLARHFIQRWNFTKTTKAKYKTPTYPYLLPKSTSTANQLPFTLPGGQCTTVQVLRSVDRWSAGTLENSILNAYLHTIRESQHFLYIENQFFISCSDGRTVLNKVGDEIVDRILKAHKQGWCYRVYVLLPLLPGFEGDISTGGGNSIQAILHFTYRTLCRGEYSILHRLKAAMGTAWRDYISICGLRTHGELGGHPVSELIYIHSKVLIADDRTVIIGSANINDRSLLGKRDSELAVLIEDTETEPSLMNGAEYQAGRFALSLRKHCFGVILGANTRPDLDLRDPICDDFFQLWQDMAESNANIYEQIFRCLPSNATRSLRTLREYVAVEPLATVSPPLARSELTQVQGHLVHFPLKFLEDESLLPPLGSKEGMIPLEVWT
Sequence (O14939 whole entry, looked up): as above
Assay: cellular phospholipase D2 activity inhibition – cell-based, HEK293, single concentration (AID 602143);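 further: tested at 200 nM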
Conditions: HEK293 cellular PLD2 activity, percent of control; hits give low values
Consider the following molecules and their measured remaining activity readings.

# substance-smiles, units-label, remaining activity
measured = [
    ("C[C@H](CN1CCC2(CC1)C(=O)NCN2c1ccccc1)NC(=O)c1cc(Br)c(Br)o1", "%", 85.7),
    ("O=C(NCCN1CCC2(CC1)C(=O)NCN2c1cccc(F)c1)c1ccc(Cl)cc1Cl", "%", 92.4),
    ("O=C(NCCN1CCC2(CC1)C(=O)NCN2c1ccccc1)c1cc(-c2ccccc2)no1", "%", 88.3),
]

* * *

Biological target: Phospholipase D2 (Homo sapiens)
Test: cellular phospholipase D2 activity inhibition – cell-based, HEK293, single concentration (AID 602143);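 further: tested at 200 nM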
Details: HEK293 cellular PLD2 activity, percent of control
Activity calls are given as the source filed them. No stated cut-off is given here; in the data, active means remaining activity below about 50%; inactive means the rest.
Outcomes: active, inactive

# substance-smiles, test-system, category
measured = [
    ("O=C(NCCN1CCC2(CC1)C(=O)NCN2c1ccccc1)c1cnco1", "Phospholipase D2 (Homo sapiens)", "inactive"),
    ("O=C(NCCN1CCC2(CC1)C(=O)NCN2c1cccc(F)c1)c1cccc(F)c1", "Phospholipase D2 (Homo sapiens)", "inactive"),
    ("CCOC(=O)CCN1CCC2(CC1)C(=O)NCN2c1ccccc1", "Phospholipase D2 (Homo sapiens)", "inactive"),
    ("C[C@@H](CN1CCC2(CC1)C(=O)NCN2c1ccc(F)c(F)c1)NC(=O)c1ccc(F)cc1", "Phospholipase D2 (Homo sapiens)", "active"),
    ("O=C(NCCN1CCC2(CC1)C(=O)NCN2c1cccc(Cl)c1)c1ccc(F)cc1", "Phospholipase D2 (Homo sapiens)", "inactive"),
    ("O=C(CCN1CCC2(CC1)C(=O)NCN2c1ccccc1)Nc1ccc(F)cc1", "Phospholipase D2 (Homo sapiens)", "inactive"),
    ("O=C(CCN1CCC2(CC1)C(=O)NCN2c1ccccc1)Nc1ccc(Cl)cc1", "Phospholipase D2 (Homo sapiens)", "inactive"),
    ("O=C(NCCN1CCC2(CC1)C(=O)NCN2c1cccc(Br)c1)c1ccc2ccccc2c1", "Phospholipase D2 (Homo sapiens)", "active"),
    ("CC(C)[C@@H](CN1CCC2(CC1)C(=O)NCN2c1ccccc1)NC(=O)c1cc2ccccc2[nH]1", "Phospholipase D2 (Homo sapiens)", "active"),
    ("C[C@@H](CN1CCC2(CC1)C(=O)N(Cc1ccccc1)c1ccccc12)NC(=O)c1ccc2ccccc2c1", "Phospholipase D2 (Homo sapiens)", "inactive"),
    ("O=C(NCCN1CCC2(CC1)C(=O)NCN2c1ccccc1)c1ccc2cc(F)ccc2c1", "Phospholipase D2 (Homo sapiens)", "inactive"),
    ("O=C(CCc1ccc(F)cc1)NCCN1CCC2(CC1)C(=O)NCN2c1ccccc1", "Phospholipase D2 (Homo sapiens)", "inactive"),
    ("O=C(NCCCCCCN1CCC2(CC1)C(=O)NCN2c1ccccc1)c1cnc2ccccc2c1", "Phospholipase D2 (Homo sapiens)", "inactive"),
    ("O=C(NCCN1CCC2(CC1)C(=O)NCN2c1ccc(Cl)cc1)c1ccc(F)cc1", "Phospholipase D2 (Homo sapiens)", "inactive"),
    ("O=C(NCCN1CCC2(CC1)C(=O)NCN2c1ccccc1)c1ccncn1", "Phospholipase D2 (Homo sapiens)", "inactive"),
    ("O=C(NCCN1CCC2(CC1)C(=O)NCN2c1ccccc1)c1ccc(F)cc1O", "Phospholipase D2 (Homo sapiens)", "inactive"),
    ("O=C(c1c(F)cccc1F)N(CCN1CCC2(CC1)C(=O)NCN2c1cccc(F)c1)C(=O)c1c(F)cccc1F", "Phospholipase D2 (Homo sapiens)", "inactive"),
    ("O=C(NCCN1CCC2(CC1)C(=O)NCN2c1ccc(F)c(F)c1)c1ccc2ccccc2c1", "Phospholipase D2 (Homo sapiens)", "active"),
    ("O=C(NCCN1CCC2(CC1)C(=O)NCN2c1ccc(F)cc1)c1ccc2cc(F)ccc2c1", "Phospholipase D2 (Homo sapiens)", "inactive"),
    ("O=C(c1cnc2ccccc2c1)N1CC(N2CCC3(CC2)C(=O)NCN3c2ccccc2)C1", "Phospholipase D2 (Homo sapiens)", "inactive"),
]

This collection of values is drawn from PubChem BioAssay AID602143.
